B1: TSN (parent)
chain: FLAAEQDIREEIRKVVQSLEQTAR

# Variants of: B1
# assay_info: protein stability index of a GFP-peptide fusion (GPS, HEK-293T) (PSI 1-6); higher = more stable;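 further: lentivirally expressed fusions sorted by FACS into six bins by GFP to DsRed ratio, PSI derived from sequencing read proportions per bin multiplied by bin number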
# measurement_context: c terminus: a fixed tail appended
readout: protein stability index

> print(dat)
    variant  endpoint.result
 1      D7G             2.22
 2     E10F             1.35
 3     A23L             2.34
 4      I8A             3.02
 5     R13D             1.84
 6     R24P             2.28
 7      E5W             2.58
 8      Q6T             1.46
 9      L2P             2.68
10     V15Y             3.44
11     Q17I             2.06
12      A3E             2.42
13     E11A             2.02
14     V15W              2.4
15     V16N             3.03
16      Q6M             1.86
17     R13Y             2.73
18     R24M             2.68
19      F1K             2.41
20     R24E             2.13
21      E5V             3.62
22     R13C             1.94
